- Tested System: human recombinant Yes [a.a. 2–543 (end)] (Homo sapiens)
- Construct: human recombinant Yes [a.a; 2–543 (end)]; purchased BPS Bioscience 40488
- Protocol: ADP-Glo kinase assay, inhibition rates of Yes phosphorylation activity (first and second screening)
- Type: biochemical
- Condition: first screening; mean of n = 4 wells; 10 μmol L−1 compound
Metric Name: First screening IR (inhibition rate) (%)

Examples with answers:
{"Molecule": "CNC(=O)c1cccc(NCc2cc(C)ccc2O)n1", "Reported Value": 37}
{"Molecule": "Cc1ccc(S(=O)(=O)N2CCCN(S(=O)(=O)N3CC(C)CC(C)C3)CC2)cc1 (stereo not drawn)", "Reported Value": 4}
{"Molecule": "Cc1cccc(CS(=O)(=O)CCS(C)(=O)=O)c1", "Reported Value": -2}

[a] COCc1nnc(-c2cccc(-c3nc(-c4cccs4)no3)c2)o1
[b] O=C(NCCSc1ccc(Br)cc1)c1ccc2nc[nH]c2c1
Req: Compare the recorded First screening IR (inhibition rate) of a and b ; state which is larger. Selection: enter the item's label.
Resp: a
(a: 11%, b: 7%)

[I] Cc1cccc(-n2c(SCC(=O)c3cc(C)n(CC4CCCO4)c3C)nnc2N2CCOCC2)c1 (stereo not drawn)
[II] Cc1ccc(/C=C/C2=Cc3c(sc(N)c3C#N)C(C)(C)C2)o1
Req: Compare the recorded First screening IR (inhibition rate) of I and II ; state which is larger. Selection: enter the item's label.
Resp: II

[P] Cc1ccc(-c2nn3c(=O)c4c5c(sc4nc3c3ccccc23)CC(C(C)(C)C)CC5)cc1 (stereo not drawn)
[Q] CC1CN(C(=O)OC(C)(C)C)C(C)CN1C(=O)Cc1csc(N2CCNC2=O)n1 (stereo not drawn)
Req: Compare the recorded First screening IR (inhibition rate) of P and Q ; state which is larger. Selection: enter the item's label.
Resp: Q
(Q: 2%, P: -24%)

----------
- Tested System: human recombinant Yes [a.a. 2–543 (end)] (Homo sapiens, UniProt P07947)
- Construct: human recombinant Yes [a.a; 2–543 (end)]; purchased BPS Bioscience 40488
- Sequence (P07947 2-543): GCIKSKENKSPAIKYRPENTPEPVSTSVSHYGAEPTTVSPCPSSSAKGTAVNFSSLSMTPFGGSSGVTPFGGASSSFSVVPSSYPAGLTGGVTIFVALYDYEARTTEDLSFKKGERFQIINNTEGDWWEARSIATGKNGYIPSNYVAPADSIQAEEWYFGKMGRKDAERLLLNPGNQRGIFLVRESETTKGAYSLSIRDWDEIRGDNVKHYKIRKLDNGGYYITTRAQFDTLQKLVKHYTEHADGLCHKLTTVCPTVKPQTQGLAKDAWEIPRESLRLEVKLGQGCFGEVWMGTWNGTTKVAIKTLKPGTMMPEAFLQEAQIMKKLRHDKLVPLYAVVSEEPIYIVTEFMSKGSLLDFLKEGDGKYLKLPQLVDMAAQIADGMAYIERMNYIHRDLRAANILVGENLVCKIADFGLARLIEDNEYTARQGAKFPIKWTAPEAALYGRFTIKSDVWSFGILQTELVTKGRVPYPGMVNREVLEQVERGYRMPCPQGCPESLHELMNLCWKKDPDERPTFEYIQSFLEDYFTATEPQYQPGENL
- Protocol: ADP-Glo kinase assay, inhibition rates of Yes phosphorylation activity (first and second screening)
- Format: biochemical
- Condition: first screening; mean of n = 4 wells; 10 μmol L−1 compound
Metric Name: First screening IR (inhibition rate) (%)

{"Compound": "O=S(=O)(c1ccccc1Cl)N1CCN(Cc2nc(-c3cccc(C(F)(F)F)c3)no2)CC1", "Tested System": "human recombinant Yes [a.a. 2–543 (end)] (Homo sapiens, UniProt P07947)", "First screening IR (inhibition rate), %": -5}

[1] Cc1noc(C)c1COC(=O)CCc1nc(-c2cccs2)no1
[2] O=C(Nc1nc(-c2ccc[nH]2)cs1)c1csc(-c2ccco2)n1
Req: Compare the recorded First screening IR (inhibition rate) of 1 and 2 ; state which is larger. Selection: enter the item's label.
Resp: 1
(1: 9%, 2: -6%)

[A] Cc1nn(CCC#N)c2nc(-c3ccc(Br)cc3)cc(C(F)(F)F)c12
[B] Cc1cccc(-n2c(=O)c3ccccc3n3c(SCC(=O)NC(C)CCCC(C)C)nnc23)c1C (centres unmarked)
[C] O=S1(=O)CC=C(S(=O)(=O)Cl)C1
Req: Could you please order the items by First screening IR (inhibition rate), going from the lowest number to the highest? The response must list the labels following the requested ordering.
Resp: A, C, B

[a] COc1ccc(NC(=O)c2c(Nc3ccc(OC(F)F)cc3)sc(C(=O)Nc3ccc4c(c3)OCO4)c2N)cc1Cl
[b] CCN(C1CCS(=O)(=O)C1)S(=O)(=O)c1c(C)noc1C (centres unmarked)
Req: Compare the recorded First screening IR (inhibition rate) of a and b ; state which is larger. Selection: enter the item's label.
Resp: a
(a: 16%, b: -5%)
